- TARGET_OF_ASSAY: human BACE1 (Homo sapiens, UniProt P56817)
- Sequence (P56817 46-501): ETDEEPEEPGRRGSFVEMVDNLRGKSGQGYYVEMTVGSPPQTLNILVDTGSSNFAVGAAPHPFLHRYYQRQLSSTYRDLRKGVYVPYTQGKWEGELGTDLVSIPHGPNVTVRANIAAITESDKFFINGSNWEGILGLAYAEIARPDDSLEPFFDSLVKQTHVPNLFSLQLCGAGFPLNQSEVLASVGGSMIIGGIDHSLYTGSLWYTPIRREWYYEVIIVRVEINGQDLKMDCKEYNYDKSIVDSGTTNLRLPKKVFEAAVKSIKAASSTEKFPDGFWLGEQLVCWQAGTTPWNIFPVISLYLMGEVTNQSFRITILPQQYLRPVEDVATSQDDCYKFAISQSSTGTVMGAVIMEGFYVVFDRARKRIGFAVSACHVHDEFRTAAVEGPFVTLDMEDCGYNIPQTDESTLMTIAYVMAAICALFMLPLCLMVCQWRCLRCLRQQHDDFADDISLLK
- ASSAY_COMMENT: BACE1 fluorescent kinetic assay (cleavage of peptide substrate WABC-6)
- Assay type: biochemical
- EXPERIMENTAL_CONDITIONS: 5 μM inhibitor; 10 nM enzyme, 25 μM substrate, pH 4.5, room temperature; read-out: BACE-1 % Inhibition at 5 μM
Field: inhibition at 5 µM. Provide a value for each of the compounds that follow.
Answers are plain numbers, in %.

GIVEN_SMILES: Nc1cccc(Cn2c(-c3ccccc3Cl)cc3ccc(C#CCCCCF)cc32)n1
VALUE_UNITS: %
READING: 53.4

GIVEN_SMILES: Nc1cccc(Cn2c(-c3ccccc3Cl)cc3ccc(CCCCCO)cc32)n1
VALUE_UNITS: %
READING: 77.3

GIVEN_SMILES: Nc1cccc(Cn2c(-c3ccccc3Cl)cc3ccc(C#CCCCO)cc32)n1
VALUE_UNITS: %
READING: 71.2

GIVEN_SMILES: N#CCCCOc1ccc2cc(-c3ccccc3Cl)n(Cc3cccc(N)n3)c2c1
VALUE_UNITS: %
READING: 79

GIVEN_SMILES: Nc1cccc(Cn2c(-c3ccccc3Cl)cc3ccc(C#CCCCCO)cc32)n1
VALUE_UNITS: %
READING: 81.1

GIVEN_SMILES: Nc1cccc(Cn2c(-c3ccccc3Cl)cc3ccc(C#CCCCF)cc32)n1
VALUE_UNITS: %
READING: 64.6

GIVEN_SMILES: Nc1cccc(Cn2c(-c3ccccc3Cl)cc3ccc(CCCCO)cc32)n1
VALUE_UNITS: %
READING: 71.8

GIVEN_SMILES: Nc1cccc(Cn2c(-c3ccccc3Cl)cc3ccc(OCc4cc(F)ccc4F)cc32)n1
VALUE_UNITS: %
READING: 33.2

Could you report inhibition at 5 µM for every entry in the following list?
1. Nc1cccc(Cn2c(-c3ccccc3Cl)cc3ccc(Br)cc32)n1
2. COCCCC#Cc1ccc2cc(-c3ccccc3Cl)n(Cc3cccc(N)n3)c2c1
3. Nc1cccc(Cn2c(-c3ccccc3Cl)cc3ccc(CCCCCCO)cc32)n1

31.7
53
107
